- Tested System: human Nox2 (Homo sapiens, UniProt P04839)
- Construct: host or cells: T-REx-CHO (hNOX2 T-REx-CHO), tetracycline-induced; membrane fraction
- Sequence (P04839 2-570 limits assumed): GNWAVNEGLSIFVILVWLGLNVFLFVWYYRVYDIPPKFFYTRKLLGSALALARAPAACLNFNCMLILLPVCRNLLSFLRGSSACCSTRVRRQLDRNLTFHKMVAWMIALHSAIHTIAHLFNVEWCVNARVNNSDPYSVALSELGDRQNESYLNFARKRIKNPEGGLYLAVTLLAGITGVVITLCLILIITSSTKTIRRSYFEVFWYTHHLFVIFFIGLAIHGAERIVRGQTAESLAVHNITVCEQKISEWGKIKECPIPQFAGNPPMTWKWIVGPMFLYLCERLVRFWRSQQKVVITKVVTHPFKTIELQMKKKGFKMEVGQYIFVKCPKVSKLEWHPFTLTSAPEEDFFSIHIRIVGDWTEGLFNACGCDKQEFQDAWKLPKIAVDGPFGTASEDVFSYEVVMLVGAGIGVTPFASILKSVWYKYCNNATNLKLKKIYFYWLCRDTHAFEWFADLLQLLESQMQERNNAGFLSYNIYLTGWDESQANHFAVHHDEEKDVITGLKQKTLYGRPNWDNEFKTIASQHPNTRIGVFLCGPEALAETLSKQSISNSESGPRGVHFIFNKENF
- Sequence (P13498 2-195 partner limits assumed): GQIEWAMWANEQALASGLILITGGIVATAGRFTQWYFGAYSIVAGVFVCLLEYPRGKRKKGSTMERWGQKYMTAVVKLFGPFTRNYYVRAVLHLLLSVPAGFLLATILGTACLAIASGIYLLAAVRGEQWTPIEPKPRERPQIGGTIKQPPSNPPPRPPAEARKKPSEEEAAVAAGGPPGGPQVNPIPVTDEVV
- Method Summary: ROS production by membranes expressing human Nox2, cell-free Amplex Red assay
- Assay type: biochemical
- Assay Context: cell-free membranes, Amplex Red; Cheng-Prusoff; average of at least three experiments in triplicate; read-out: Ki hNox2
- Protocol: The Nox4 activity of Nox4 inhibitors according to the invention may be tested for their activity in the inhibition or reduction of formation of reactive oxygen species (ROS) from oxygen in cell free assays. […] Antagonist activity of compounds was measured in the presence of increasing concentrations ranging from 1 nM to 100 μM. […]
Lab note: compare Ki with 700 nM, writing YES if less and NO if equal or more.

Smiles Text	Category Label
COc1ccc(F)c(-c2c3c(=O)n(-c4ccccc4OC)[nH]c3cc(=O)n2Cc2cccnc2)c1	NO
O=c1c2c(-c3cc(Cl)ccc3F)n(Cc3cccnc3)c(=O)cc2[nH]n1-c1ccccc1Cl	YES
COc1ccc(-c2c3c(=O)n(-c4ccccc4Cl)[nH]c3cc(=O)n2Cc2ccncc2)c(F)c1	YES
COc1ccc(-c2c3c(=O)n(-c4ccccc4Cl)[nH]c3cc(=O)n2Cc2cccnc2)c(F)c1	YES
O=c1c2c(-c3ccc(Cl)cc3)n(Cc3nccs3)c(=O)cc2[nH]n1-c1ccccc1Cl	NO
COc1ccc(-c2c3c(=O)n(-c4ccccc4OC)[nH]c3cc(=O)n2Cc2ccn(C)n2)c(F)c1	NO
COc1ccccc1-n1[nH]c2cc(=O)n(Cc3cnccn3)c(-c3ccc(Cl)cc3)c2c1=O	NO
